- SYSTEM: Acetylcholinesterase (Electrophorus electricus) (UniProt O42275)
- Sequence (O42275 24-633 limits assumed): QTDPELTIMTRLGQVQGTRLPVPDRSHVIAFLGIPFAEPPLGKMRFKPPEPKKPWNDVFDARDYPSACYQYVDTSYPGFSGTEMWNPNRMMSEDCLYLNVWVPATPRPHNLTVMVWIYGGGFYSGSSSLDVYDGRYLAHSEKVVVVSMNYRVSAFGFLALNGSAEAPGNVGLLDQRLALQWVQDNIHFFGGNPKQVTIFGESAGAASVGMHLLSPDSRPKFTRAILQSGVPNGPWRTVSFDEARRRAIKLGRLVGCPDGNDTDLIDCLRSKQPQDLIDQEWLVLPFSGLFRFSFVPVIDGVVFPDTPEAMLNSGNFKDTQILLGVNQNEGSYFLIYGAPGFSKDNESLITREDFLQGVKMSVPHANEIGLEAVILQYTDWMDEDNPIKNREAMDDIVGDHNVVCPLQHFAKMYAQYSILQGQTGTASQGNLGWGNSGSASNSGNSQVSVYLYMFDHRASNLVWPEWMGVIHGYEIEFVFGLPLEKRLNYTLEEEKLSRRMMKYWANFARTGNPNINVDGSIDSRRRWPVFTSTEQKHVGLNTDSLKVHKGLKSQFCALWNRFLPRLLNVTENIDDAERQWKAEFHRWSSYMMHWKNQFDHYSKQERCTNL
- COND: at 2 mg/mL
- Description: Inhibition of electric eel AChE at 2 mg/ml by Ellman's method
# reported inhibition; entries follow
OUTCOME MEASURE: inhibition (%)

• CC1=C(O)C(=O)C=C2C1=CC=C1[C@@]2(C)CC[C@@]2(C)[C@@H]3C[C@](C)(C(=O)O)CC[C@]3(C)CC[C@]12C = 22.1
• COc1ccc(CC2NCCc3cc(OC)c(OC)cc32)cc1OC (stereo not drawn) = 4.06
• C[C@@H]1OC(=O)[C@H]2C[C@H]3CCCC[C@@H]3[C@@H](/C=C/[C@H]3CCC[C@H](C)N3C)[C@@H]12 [HIMBACINE] = 57

###

- SYSTEM: Acetylcholinesterase (Electrophorus electricus)
- COND: at 2 mg/mL
# reported inhibition; entries follow
OUTCOME MEASURE: inhibition (%)

- COC1=C(N)C(=O)c2nc(-c3nc(C(=O)O)c(C)c(-c4ccc(OC)c(OC)c4O)c3N)ccc2C1=O: -2.66
- C[C@H]1C/C=C/[C@H]2[C@@H]3O[C@]3(C)[C@@H](C)[C@H]3[C@H](Cc4ccccc4)NC(=O)[C@]32OC(=O)O/C=C/[C@@](C)(O)C1=O: 5.91
- COc1ccc2c(c[n+](C)c3c4cc5c(cc4ccc23)OCO5)c1OC [CHELERYTHRINE CHLORIDE]: 75.9
- C[C@H]1[C@H](C)CC[C@]2(C(=O)O)CC[C@]3(C)C(=CC[C@@H]4[C@@]5(C)C[C@@H](O)[C@H](O)[C@@](C)(CO)[C@@H]5CC[C@]43C)[C@H]12: 3.99
- CCOC(=O)C1=C[C@]2(CC)CCCN3CCc4c(n1c1ccccc41)[C@@H]32: 12.3
- COc1ccc2c(OC)c3ccoc3nc2c1OC: 39.3
- CC[C@H](CC[C@@H](C)[C@H]1CC[C@H]2[C@@H]3CC=C4C[C@@H](O)CC[C@]4(C)[C@H]3CC[C@]12C)C(C)C: 13.8
- C=C(C)[C@H]1CN[C@H](C(=O)O)[C@H]1CC(=O)O: -5.89
- CCCCC[C@H](O)/C=C/C1=C(CCCCCCC(=O)O)C(=O)CC1: 15.6
- CC[C@H](C)/C=C(C)/C=C/C1=CC2=C(Cl)C(=O)[C@](C)(OC(C)=O)C(=O)C2=CO1: 3.54
- O=C1C[C@@H]2OCC=C3CN4CC[C@]56c7ccccc7N1[C@H]5[C@H]2[C@H]3C[C@H]46: 12.2

###

- SYSTEM: Cholinesterase (Equus caballus) (UniProt P81908)
- Sequence (P81908 whole entry): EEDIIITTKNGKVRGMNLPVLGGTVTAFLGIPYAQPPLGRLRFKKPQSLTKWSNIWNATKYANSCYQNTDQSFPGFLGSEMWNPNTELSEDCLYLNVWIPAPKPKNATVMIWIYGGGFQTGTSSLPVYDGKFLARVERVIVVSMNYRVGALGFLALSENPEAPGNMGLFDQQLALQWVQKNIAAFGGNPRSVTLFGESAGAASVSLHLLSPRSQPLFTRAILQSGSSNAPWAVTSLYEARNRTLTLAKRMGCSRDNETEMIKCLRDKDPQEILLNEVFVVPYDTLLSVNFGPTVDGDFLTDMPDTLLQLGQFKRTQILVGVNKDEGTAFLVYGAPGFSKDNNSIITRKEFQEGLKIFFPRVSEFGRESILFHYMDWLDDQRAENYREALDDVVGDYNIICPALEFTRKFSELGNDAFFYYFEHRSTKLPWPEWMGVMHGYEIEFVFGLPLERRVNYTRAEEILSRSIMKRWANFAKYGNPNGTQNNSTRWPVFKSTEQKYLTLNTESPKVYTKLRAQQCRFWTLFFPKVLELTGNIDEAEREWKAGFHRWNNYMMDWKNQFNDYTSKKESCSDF
- COND: at 2 mg/mL
- Description: Inhibition of horse BChE at 2 mg/ml by Ellman's method
OUTCOME MEASURE: inhibition (%)

• COc1ccc2c3c([nH]c2c1)C(C)=NCC3 = 0.63
• C[C@H]1O[C@@H](O[C@H]2[C@@H](O)C[C@H](O[C@H]3[C@@H](O)C[C@H](O[C@H]4CC[C@@]5(C)[C@H](CC[C@@H]6[C@@H]5CC[C@]5(C)[C@@H](C7=CC(=O)OC7)CC[C@]65O)C4)O[C@@H]3C)O[C@@H]2C)C[C@H](O)[C@@H]1O = -0.78
• CCN1C[C@]2(COC)CC[C@H](OC)[C@]34C1[C@H]([C@H](OC)[C@H]23)[C@@]1(OC(C)=O)C[C@H](OC)[C@@]2(O)C[C@@H]4[C@@H]1[C@H]2C(=O)c1ccc(OC)cc1 = 9.36
• COC(=O)C1=CCCN(C)C1 = 0.29
• COc1ccc2c(OC)c3ccoc3nc2c1OC = 6.79
• O=c1cc(-c2ccc(O)cc2)oc2c(O[C@@H]3O[C@H](CO)[C@@H](O)[C@H](O)[C@H]3O)c(O)c(O[C@@H]3O[C@H](CO)[C@@H](O)[C@H](O)[C@H]3O)c(O)c12 = 1.92
• CO[C@H]1[C@H](O)[C@H](O[C@H]2CC[C@@]3(C=O)[C@H](CC[C@@H]4[C@@H]3CC[C@]3(C)[C@@H](C5=CC(=O)OC5)CC[C@]43O)C2)O[C@@H](C)[C@@H]1O = -1.96
• Oc1cc(O)c2c(c1)O[C@H](c1ccc(O)c(O)c1)[C@@H](O)C2 = -5.96
• COC(=O)[C@H]1[C@H]2C[C@@H]3c4[nH]c5cc(OC)ccc5c4CCN3C[C@H]2C[C@@H](OC(=O)c2cc(OC)c(OC)c(OC)c2)[C@@H]1OC = 15.3
• CC[C@H]1[C@@H]2C[C@H]3[C@@H]4N(C)c5ccccc5[C@]45C[C@@H]([C@@H]2[C@H]5O)N3[C@@H]1O = 22.3
• CC(C)(S)[C@H](N)C(=O)O = -6.36

###

- SYSTEM: Acetylcholinesterase (Electrophorus electricus)
- COND: at 2 mg/mL
OUTCOME MEASURE: inhibition (%)

• COc1ccc(-c2oc3cc(O)cc(O)c3c(=O)c2O)cc1O = 25.9
• O=c1c(-c2ccc(O)cc2)coc2cc(O[C@@H]3O[C@H](CO)[C@@H](O)[C@H](O)[C@H]3O)ccc12 = 17.6
• COc1cc(O)c2c(c1)oc(=O)c1c3cc(O)c(O)cc3oc21 = 11.8
• CC(C)[C@H]1C(=O)O[C@@H]2CCN3CC=C(COC(=O)[C@](C)(O)[C@]1(C)O)[C@H]23 = 24.2

###

- SYSTEM: UniProtKB O42275
- COND: at 2 mg/mL
OUTCOME MEASURE: inhibition (%)

• CCCC[C@@H](C)[C@@H](OC(=O)C[C@@H](CC(=O)O)C(=O)O)[C@H](C[C@@H](C)CCCCCC[C@@H](O)C[C@H](O)[C@H](C)N)OC(=O)C[C@@H](CC(=O)O)C(=O)O = -8.37
• COc1cc2c(cc1OC)[C@H]1[C@@H](C)c3ccc(OC)c(OC)c3CN1CC2 = 13.9
• C[C@H]1[C@H](C)CC[C@]2(C(=O)O)CC[C@]3(C)C(=CC[C@@H]4[C@@]5(C)CC[C@H](O)C(C)(C)[C@@H]5CC[C@]43C)[C@H]12 = 16.8

###

- SYSTEM: Cholinesterase (Equus caballus)
- COND: at 2 mg/mL
# reported inhibition; entries follow
OUTCOME MEASURE: inhibition

• COc1ccc(-c2cc(=O)c3c(O)cc(O)cc3o2)cc1O = -6.13%
• COc1cccc2c1C(=O)c1c(O)c3c(c(O)c1C2=O)C[C@@](O)(C(C)=O)C[C@@H]3O[C@H]1C[C@H](N)[C@H](O)[C@H](C)O1 = -0.13%
• CO[C@@H]1[C@@H](OC)[C@H](C)[C@@](O)(CC(=O)O)O[C@H]1[C@H](C)[C@H]1O[C@@]2(CC[C@@](C)([C@H]3CC[C@@](C)([C@@H]4O[C@@H]([C@H]5O[C@](C)(O)[C@H](C)C[C@@H]5C)C[C@@H]4O[C@@H]4C[C@H](OC)[C@@H](OC)[C@H](C)O4)O3)O2)C[C@H](O)[C@H]1C = -3.8%
• C=C1[C@@H](C)[C@H]2[C@H](Cc3ccccc3)NC(=O)[C@]23OC(=O)/C=C/[C@H](O)CCC[C@@H](C)C/C=C/[C@H]3[C@@H]1O = 8.94%
• CO[C@H](C(=O)[C@@H](O)[C@@H](C)O)[C@@H]1Cc2cc3cc(O[C@H]4C[C@@H](O[C@H]5C[C@@H](O)[C@H](O)[C@@H](C)O5)[C@@H](O)[C@@H](C)O4)c(C)c(O)c3c(O)c2C(=O)[C@H]1O[C@H]1C[C@@H](O[C@H]2C[C@@H](O[C@H]3C[C@](C)(O)[C@H](O)[C@@H](C)O3)[C@H](O)[C@@H](C)O2)[C@H](O)[C@@H](O)O1 = 6.61%
• CN1C(=O)[C@]23CC4=CC=C[C@H](O)[C@H]4N2C(=O)[C@@]1(CO)SS3 = 10.3%
• C[C@@H]1CC[C@H]2[C@](C)(CO)[C@@H](O)CC[C@]2(C)[C@@]12CC[C@@](CO)(CCO)O2 = 6.75%
• CCCC[C@@H](C)[C@@H](OC(=O)C[C@@H](CC(=O)O)C(=O)O)[C@H](C[C@@H](C)CCCCCC[C@@H](O)C[C@H](O)[C@H](C)N)OC(=O)C[C@@H](CC(=O)O)C(=O)O = 15.1%
• O=C(CCc1ccc(O)cc1)c1c(O)cc(O)cc1O[C@@H]1O[C@H](CO)[C@@H](O)[C@H](O)[C@H]1O = 5.38%
• O[C@H]1[C@H](O)[C@@H](O)CN2CC[C@H](O)[C@H]12 = 0.79%
• C=C(C)[C@@H]1CC=C(C(=O)O)CC1 = 3.58%
• OC1c2ccccc2N=C2CCCN21 (configuration not stated) = 65.7%

Data provenance is ChEMBL document CHEMBL2163249.
